test: qHTS for inhibitors of binding or entry into cells for Marburg Virus; conditions: Marburg virus pseudotyped entry inhibition, cell reporter; series mostly up to 37.8 µM
The campaign covered roughly 300,000 compounds. About 5,400 (1.8%) were called active. About 28% were inconclusive and are not listed. Calls come from the whole dose curve; tested in HEK293 cells. Many of the other results were omitted from the sample, so actives are more common in it than they were.
Lab note: assign the record to one of active, inactive

A selection of reference data follows.
{"COMPOUND": "NC(=O)C1(N2CCCC2)CCN(Cc2ccccc2)CC1", "QUALITATIVE_LABEL": "inactive"}
{"COMPOUND": "COc1cc2[nH]c(O)c(C=O)c2cc1OC", "QUALITATIVE_LABEL": "inactive"}
{"COMPOUND": "CCn1c(C(O)c2cc(OC)ccc2OC)nc2ccccc21 (centres undefined)", "QUALITATIVE_LABEL": "inactive"}
{"COMPOUND": "Cc1nn(-c2ccc(F)cc2)c(Cl)c1/C=C(/CCC(=O)O)c1nc2ccccc2s1", "QUALITATIVE_LABEL": "inactive"}

Just curious, what result did CCOc1cc(N2CCOCC2)c(OCC)cc1NC(=O)COc1cccc2cccnc12 get here?
active

Same read-out for CCOC(=O)C1CCCN(C(=O)C2CCN(S(=O)(=O)c3ccc(Cl)c(C(F)(F)F)c3)CC2)C1 (centres undefined) ?
inactive

Same read-out for O=C1NC(Nc2nc3ccccc3s2)(C(F)(F)F)C(=O)N1C1CCCCC1 (centres undefined) ?
active

Same read-out for c1ccc(-c2nnc(N3CCOCC3)c3ccccc23)cc1 ?
inactive

Same read-out for O=C(c1cccc(S(=O)(=O)N2CCOCC2)c1)N1CCOCC1 ?
inactive
